Target: Dihydrofolate reductase (Homo sapiens, UniProt P00374)
Sequence (P00374 whole entry): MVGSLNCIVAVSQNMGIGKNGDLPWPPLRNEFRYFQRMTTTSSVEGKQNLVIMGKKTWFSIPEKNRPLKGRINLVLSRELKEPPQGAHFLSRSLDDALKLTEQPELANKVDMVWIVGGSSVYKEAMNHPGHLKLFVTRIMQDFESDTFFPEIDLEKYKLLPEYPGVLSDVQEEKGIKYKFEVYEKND
pIC50: −log10 of the molar value.
readout name: pIC50

Worked examples, 3 molecules total:
* Cc1cc2nc(N)[nH]c(=O)c2n1Cc1ccc(C(=O)N[C@@H](CCC(=O)O)C(=O)O)cc1 | 6.92
* COc1ccc(Cn2c(C)cc3nc(N)[nH]c(=O)c32)cc1 | < 4.46
* Cc1cc2nc(N)[nH]c(=O)c2n1Cc1cc(Br)cc(Br)c1 | < 4.62

Report pIC50 for each item below.
1. Cc1cc2nc(N)[nH]c(=O)c2n1Cc1ccncc1
2. Cc1cc2nc(N)[nH]c(=O)c2n1Cc1ccc(F)cc1
3. Cc1cc2nc(N)[nH]c(=O)c2n1Cc1ccc(Br)cc1

1: < 4.43; 2: < 4.43; 3: < 4.46
